Source: the Human Domainome abundance scans (Beltran et al. 2025)

B1: Homeobox protein cut-like 1, residues 548 to 629; numbered along this chain, P39880 (parent)
chain: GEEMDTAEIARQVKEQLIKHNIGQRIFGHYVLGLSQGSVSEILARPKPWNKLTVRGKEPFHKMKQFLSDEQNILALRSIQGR

- Variants of: B1
- Assay Explanation: abundance fitness (aPCA) (normalised: wild type 0, dead -1); higher = more abundant; growth selection in yeast, the domain comes from the species named
- Condition Details: Homo sapiens
Answer not met if abundance fitness is under -0.3, and met if it is -0.3 or more.

These recorded examples may help you get a feel for the data.
- Mutation Spec: "K57N"
  Label Value: "not met"
- Mutation Spec: "D5V"
  Label Value: "not met"
- Mutation Spec: "F66E"
  Label Value: "not met"
- Mutation Spec: "D5T"
  Label Value: "met"
- Mutation Spec: "S68W"
  Label Value: "not met"
- Mutation Spec: "Q65S"
  Label Value: "met"
- Mutation Spec: "H61S"
  Label Value: "met"
- Mutation Spec: "E2R"
  Label Value: "met"
- Mutation Spec: "L74W"
  Label Value: "met"
- Mutation Spec: "A10Q"
  Label Value: "not met"

Request: Determine whether measured abundance fitness meets or exceeds -0.3 for `R77G`
Result: met

Request: Could you please find out whether `F60D` has abundance fitness that meets -0.3 or exceeds it?
Result: not met
